Source of measurements: ChEMBL document CHEMBL4038323

pKd: −log10 of the molar value.
Parameter pKd, tested on Metabotropic glutamate receptor 2 (Homo sapiens), listed per item.
quantity measured: pKd

[[record]]
smiles = "CCc1cc(Oc2ccc(-c3ccn4c(CC5CC5)nnc4c3Cl)cc2F)ccn1"
tested_target = "Metabotropic glutamate receptor 2 (Homo sapiens)"
reported = 7.63

[[record]]
smiles = "CC(C)C(=O)c1ccc(OCc2ccc(CNC(=O)c3cn(C)cn3)cc2)c(C(F)(F)F)c1O"
tested_target = "Metabotropic glutamate receptor 2 (Homo sapiens)"
reported = 7.00

[[record]]
smiles = "Cc1ccc(Oc2ccc(-c3ccn4c(CC5CC5)nnc4c3C)cc2Cl)c(C)n1"
tested_target = "Metabotropic glutamate receptor 2 (Homo sapiens)"
reported = 7.76

[[record]]
smiles = "Cc1cc(Oc2ccc(-c3ccn4c(CC5CC5)nnc4c3C(F)(F)F)cc2F)ccn1"
tested_target = "Metabotropic glutamate receptor 2 (Homo sapiens)"
reported = 8.04

[[record]]
smiles = "Clc1cc(-c2ccn3c(CC4CC4)nnc3c2Cl)ccc1NC1CC1"
tested_target = "Metabotropic glutamate receptor 2 (Homo sapiens)"
reported = 8.21


---

# tested target: Metabotropic glutamate receptor 2 (Homo sapiens)
# assay protocol: Displacement of [3H]JNJ-46281222 from human metabotropic glutamate receptor 2 expressed in CHOK1 cell membranes assessed as residence time measured every 30 sec for 120 mins by scintillation proximity assay
# Sequence (Q14416 19-872 limits assumed): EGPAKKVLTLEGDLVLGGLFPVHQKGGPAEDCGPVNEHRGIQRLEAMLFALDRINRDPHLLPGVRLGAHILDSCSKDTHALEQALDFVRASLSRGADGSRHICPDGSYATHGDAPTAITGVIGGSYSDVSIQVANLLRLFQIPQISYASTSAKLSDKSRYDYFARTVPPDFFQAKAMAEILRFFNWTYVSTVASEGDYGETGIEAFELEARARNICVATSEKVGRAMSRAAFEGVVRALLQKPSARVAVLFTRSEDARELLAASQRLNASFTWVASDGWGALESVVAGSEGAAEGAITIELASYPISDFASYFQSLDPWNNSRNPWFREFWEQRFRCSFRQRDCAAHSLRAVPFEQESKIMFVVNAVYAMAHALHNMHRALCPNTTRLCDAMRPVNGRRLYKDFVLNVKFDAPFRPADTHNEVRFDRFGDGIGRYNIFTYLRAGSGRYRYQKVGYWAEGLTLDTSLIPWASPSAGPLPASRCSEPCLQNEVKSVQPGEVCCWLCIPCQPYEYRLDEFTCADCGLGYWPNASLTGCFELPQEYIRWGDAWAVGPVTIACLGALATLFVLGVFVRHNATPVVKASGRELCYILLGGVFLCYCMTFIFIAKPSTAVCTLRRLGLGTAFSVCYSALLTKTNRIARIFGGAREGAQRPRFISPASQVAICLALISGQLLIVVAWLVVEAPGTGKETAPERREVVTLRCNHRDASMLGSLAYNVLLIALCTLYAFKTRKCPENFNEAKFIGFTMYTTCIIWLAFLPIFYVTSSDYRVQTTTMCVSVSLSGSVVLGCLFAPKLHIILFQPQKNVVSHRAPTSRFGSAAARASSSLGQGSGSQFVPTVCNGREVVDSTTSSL
Entries and their TIME values follow.
quantity measured: TIME (h)

[[record]]
smiles = "N#Cc1c(N2CCC(c3ccccc3)CC2)ccn(CC2CC2)c1=O"
quantity_measured = "TIME"
reported = 0.185

[[record]]
smiles = "COc1ccc(COc2ccc(-c3ccn4c(CC5CC5)nnc4c3C(F)(F)F)cc2)cn1"
quantity_measured = "TIME"
reported = 0.133

[[record]]
smiles = "O[C@H]1CC[C@H](Oc2ccc(-c3ccn4c(CC5CC5)nnc4c3C(F)(F)F)cc2Cl)CC1"
quantity_measured = "TIME"
reported = 0.468

[[record]]
smiles = "O[C@]1(C2CC2)CC[C@H](Nc2ccc(-c3ccn4c(CC5CC5)nnc4c3C(F)(F)F)cc2Cl)CC1"
quantity_measured = "TIME"
reported = 0.825

[[record]]
smiles = "Cc1ccc(Oc2ccc(-c3ccn4c(CC5CC5)nnc4c3C)cc2F)c(C)n1"
quantity_measured = "TIME"
reported = 0.193

[[record]]
smiles = "Cc1ccc(Oc2ccc(-c3ccn4c(CC5CC5)nnc4c3C)cc2Cl)c(C)n1"
quantity_measured = "TIME"
reported = 0.175

[[record]]
smiles = "COc1ccc(COc2ccc(-c3ccn4c(CC5CC5)nnc4c3C(F)(F)F)cc2F)cn1"
quantity_measured = "TIME"
reported = 0.0967

[[record]]
smiles = "Cc1ccc(Oc2ccc(-c3ccn4c(CC(F)(F)F)nnc4c3Cl)cc2F)c(C)n1"
quantity_measured = "TIME"
reported = 0.175

[[record]]
smiles = "Clc1cc(-c2ccn3c(CC4CC4)nnc3c2Cl)ccc1NC1CCOCC1"
quantity_measured = "TIME"
reported = 0.122

[[record]]
smiles = "O[C@H]1CC[C@H](Oc2ccc(-c3ccn4c(CC(F)(F)F)nnc4c3Cl)cc2Cl)CC1"
quantity_measured = "TIME"
reported = 0.122

[[record]]
smiles = "Clc1cc(-c2ccn3c(CC4CC4)nnc3c2Cl)ccc1NC1CC1"
quantity_measured = "TIME"
reported = 0.198


---

# tested target: Metabotropic glutamate receptor 4 (Homo sapiens)
# assay protocol: Agonist activity at human metabotropic glutamate receptor 4 assessed as increase in [35S]GTPgammaS binding preincubated for 30 mins followed by [35S]GTPgammaS addition measured after 30 mins by Topcount scintillation counting method
# Format: functional
The source made the active and inactive calls. The calls are words filed in the database; no cut-off is given here.
quantity measured: Activity

[[record]]
smiles = "Cc1ccc(Oc2ccc(-c3ccn4c(CC5CC5)nnc4c3Cl)cc2Cl)c(C)n1"
tested_target = "Metabotropic glutamate receptor 4 (Homo sapiens)"
quantity_measured = "Activity"
reported = "inactive"

[[record]]
smiles = "O[C@H]1CC[C@H](Nc2ccc(-c3ccn4c(CC(F)(F)F)nnc4c3Cl)cc2Cl)CC1"
tested_target = "Metabotropic glutamate receptor 4 (Homo sapiens)"
quantity_measured = "Activity"
reported = "inactive"

[[record]]
smiles = "FC(F)(F)c1c(-c2ccc(OC3CCOCC3)c(Cl)c2)ccn2c(CC3CC3)nnc12"
tested_target = "Metabotropic glutamate receptor 4 (Homo sapiens)"
quantity_measured = "Activity"
reported = "inactive"

[[record]]
smiles = "Fc1cc(-c2ccn3c(CC4CC4)nnc3c2Cl)ccc1NC1CC1"
tested_target = "Metabotropic glutamate receptor 4 (Homo sapiens)"
quantity_measured = "Activity"
reported = "inactive"

